Where these numbers come from: ChEMBL document CHEMBL3407483

# Tested on: Trypanosoma brucei rhodesiense
# Test Description: Antitrypanosomal activity against trypomastigote stage of Trypanosoma brucei rhodesiense STIB 900 assessed as parasite growth inhibition after 72 hrs by Alamar Blue assay
# Type: functional, organism-based
# Study Conditions: STIB 900, 72 h
Measurement Kind: log10(IC50) (log10 of the value in µM)
Recorded IC50 (log10, µM)

Sample records with log10(IC50):
1) O=C(Cn1cnc([N+](=O)[O-])n1)Nc1nc(-c2ccc(F)c(F)c2)cs1; 1.21
2) Cc1nc(-c2cccc(NC(=O)Cn3cnc([N+](=O)[O-])n3)c2)cs1; 0.85
3) O=C(Cn1cnc([N+](=O)[O-])n1)c1ccc(F)cc1F; 1.53
4) CC(O)(Cn1cncn1)c1ccc(-c2ccccc2)cc1 (stereo not given); 1.82
5) N#Cc1ccc(-c2ccc(NC(=O)Cn3cnc([N+](=O)[O-])n3)cc2)cc1; -0.47

Lab note: next molecule to report on.
GET /values?readout=log10(IC50)&item= O=C(Cn1cnc([N+](=O)[O-])n1)Nc1nc(-c2ccc(Cl)cc2)cs1
0.61
